Numbers sourced from PubChem BioAssay (NCI).

Each record here notes measured growth.
Test system: SF-539 CNS
Assay: NCI-60 one-dose screen, 48 h (100 = growth as untreated, 0 = no growth, -100 = all killed)
Conditions: 10 µM unless noted
This is part of a sample that, as a whole, favours compounds with a hit. Of some 83,000 tested, about 20% had one in any assay.
Quick reminder: number only, in %, skip the unit.

CCN1CCN(c2nc(NNC(=O)c3ccc(OC)cc3)nc(N3CCN(C(c4ccccc4)c4ccccc4)CC3)n2)CC1
73.2

Please fill in: growth reported for CCCCCCCCNC(=O)[C@@H](N)CSCOC(C)=O = 79.9

Please fill in: growth reported for O=C(Nc1ccc2[nH]ncc2c1)c1csc(Nc2ccccc2)n1 = 22.5

Please fill in: growth reported for O=C(NC1CCCCCC1)c1ccc2c(=O)n3c(nc2c1)CCCCC3 = 89.2
